All figures here come from paper PMC6211260.

Target: BRAF (V600E) (Homo sapiens, UniProt P15056, V600E)
Sequence (P15056 whole entry V600E): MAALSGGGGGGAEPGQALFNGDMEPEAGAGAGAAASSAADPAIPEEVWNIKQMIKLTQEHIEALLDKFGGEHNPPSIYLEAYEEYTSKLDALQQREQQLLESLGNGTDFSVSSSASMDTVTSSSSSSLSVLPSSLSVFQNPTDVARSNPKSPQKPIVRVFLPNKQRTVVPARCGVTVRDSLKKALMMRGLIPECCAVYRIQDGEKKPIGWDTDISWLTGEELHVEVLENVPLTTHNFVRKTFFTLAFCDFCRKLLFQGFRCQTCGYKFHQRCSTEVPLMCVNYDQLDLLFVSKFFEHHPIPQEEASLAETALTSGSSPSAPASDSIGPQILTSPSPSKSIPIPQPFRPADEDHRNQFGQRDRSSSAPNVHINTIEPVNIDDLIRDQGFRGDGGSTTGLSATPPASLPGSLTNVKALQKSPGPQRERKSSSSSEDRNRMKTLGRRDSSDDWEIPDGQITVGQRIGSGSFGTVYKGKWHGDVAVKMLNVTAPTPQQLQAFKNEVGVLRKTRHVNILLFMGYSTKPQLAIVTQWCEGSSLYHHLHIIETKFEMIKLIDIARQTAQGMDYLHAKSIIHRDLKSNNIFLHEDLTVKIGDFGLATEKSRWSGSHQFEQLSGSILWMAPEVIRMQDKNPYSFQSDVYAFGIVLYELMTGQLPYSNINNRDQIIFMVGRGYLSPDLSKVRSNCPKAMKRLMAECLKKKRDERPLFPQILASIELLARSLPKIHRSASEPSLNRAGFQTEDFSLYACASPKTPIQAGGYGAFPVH
Test: In vitro kinase screening (Kinase HotSpot)
Conditions: BRAF(V600E)
pIC50: −log10 of the molar value.

{"columns": ["molecule", "pIC50"],
 "data": [
  ["O=S(=O)(NCCCNc1cc(-c2cn(-c3ccccc3)nc2-c2cccc(O)c2)ccn1)c1ccc(Cl)cc1 [Compound 2l]", 5.94]
]}

###

Reported IC50 values for the following molecules.
System: breast cancer cell lines
Assay: NCI five-dose testing, subpanel mean
Format: cell-based
Conditions: subpanel IX: breast cancer

{"columns": ["molecule", "reading-unit", "IC50"],
 "data": [
  ["COc1cccc(-c2nn(-c3ccccc3)cc2-c2ccnc(NCCNS(=O)(=O)c3ccc(Cl)cc3)c2)c1 [Compound 1c]", "µM", 3.79],
  ["O=S(=O)(NCCNc1cc(-c2cn(-c3ccccc3)nc2-c2cccc(O)c2)ccn1)c1ccc(Cl)cc1 [Compound 1l]", "µM", 2.48],
  ["COc1cccc(-c2nn(-c3ccccc3)cc2-c2ccnc(NCCCNS(=O)(=O)c3ccc(C(F)(F)F)cc3)c2)c1 [Compound 2g]", "µM", 4.05],
  ["O=S(=O)(NCCNc1cc(-c2cn(-c3ccccc3)nc2-c2cccc(O)c2)ccn1)c1ccc(Br)cc1 [Compound 1k]", "µM", 2.34],
  ["O=S(=O)(NCCCNc1cc(-c2cn(-c3ccccc3)nc2-c2cccc(O)c2)ccn1)c1cccc2ccccc12 [Compound 2q]", "µM", 1.95],
  ["O=S(=O)(NCCCNc1cc(-c2cn(-c3ccccc3)nc2-c2cccc(O)c2)ccn1)c1ccc(C(F)(F)F)cc1 [Compound 2o]", "µM", 1.87],
  ["COc1cccc(-c2nn(-c3ccccc3)cc2-c2ccnc(NCCNS(=O)(=O)c3ccc(C(F)(F)F)cc3)c2)c1 [Compound 1g]", "µM", 4.05]
]}

###

Reported pIC50 values for the following compounds.
Tested on: U251 CNS cancer cell line
Experiment: NCI five-dose testing
Type: cell-based
Settings: Homo sapiens, U-251; U251; read-out: IC50
pIC50: −log10 of the molar value.
readout-name: pIC50

{"columns": ["structure", "assay-target", "val"],
 "data": [
  ["COc1cccc(-c2nn(-c3ccccc3)cc2-c2ccnc(NCCCNS(=O)(=O)c3cccc(F)c3)c2)c1", "U251 CNS cancer cell line", 5.32],
  ["O=S(=O)(NCCCNc1cc(-c2cn(-c3ccccc3)nc2-c2cccc(O)c2)ccn1)c1ccc(F)cc1", "U251 CNS cancer cell line", 5.53],
  ["O=S(=O)(NCCCNc1cc(-c2cn(-c3ccccc3)nc2-c2cccc(O)c2)ccn1)c1cccc2ccccc12", "U251 CNS cancer cell line", 5.89],
  ["O=S(=O)(NCCCNc1cc(-c2cn(-c3ccccc3)nc2-c2cccc(O)c2)ccn1)c1ccc(Br)cc1", "U251 CNS cancer cell line", 5.92],
  ["COc1cccc(-c2nn(-c3ccccc3)cc2-c2ccnc(NCCNS(=O)(=O)c3ccc(C(F)(F)F)cc3)c2)c1", "U251 CNS cancer cell line", 5.45],
  ["COc1cccc(-c2nn(-c3ccccc3)cc2-c2ccnc(NCCCNS(=O)(=O)c3ccc(C(F)(F)F)cc3)c2)c1", "U251 CNS cancer cell line", 5.25],
  ["O=S(=O)(NCCNc1cc(-c2cn(-c3ccccc3)nc2-c2cccc(O)c2)ccn1)c1ccc(C(F)(F)F)cc1", "U251 CNS cancer cell line", 5.58],
  ["O=S(=O)(NCCCNc1cc(-c2cn(-c3ccccc3)nc2-c2cccc(O)c2)ccn1)c1ccc(C(F)(F)F)cc1", "U251 CNS cancer cell line", 5.75]
]}
